Listed next: entries and their corresponding pKb.
measured.target: Orexin/Hypocretin receptor type 1 (Homo sapiens)
Sequence (whole entry): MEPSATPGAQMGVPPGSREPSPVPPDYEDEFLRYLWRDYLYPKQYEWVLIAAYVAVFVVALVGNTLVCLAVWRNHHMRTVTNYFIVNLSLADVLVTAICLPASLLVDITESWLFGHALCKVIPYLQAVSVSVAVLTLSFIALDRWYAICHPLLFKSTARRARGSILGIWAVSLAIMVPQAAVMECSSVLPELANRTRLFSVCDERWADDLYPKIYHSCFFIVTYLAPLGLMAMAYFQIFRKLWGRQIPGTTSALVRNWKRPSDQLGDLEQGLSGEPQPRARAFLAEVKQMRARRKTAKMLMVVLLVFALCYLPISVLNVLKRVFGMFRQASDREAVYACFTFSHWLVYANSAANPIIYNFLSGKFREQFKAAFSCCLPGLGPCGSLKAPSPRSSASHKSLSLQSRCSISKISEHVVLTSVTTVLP
protocol.summary: Antagonist activity at human recombinant OX1 receptor expressed in CHO cells assessed as OXA-stimulated intracellular calcium mobilization by FLIPR assay
Format: functional, cell-based

Worked examples, 4 molecules total:
O=C(c1cc(Cl)ccc1-c1ncccn1)N1CC2(CC2)C[C@H]1CNc1cc(C(F)(F)F)ccn1	8.1
Cc1nc(C(=O)N2CC3(CC3)C[C@H]2CNc2cc(C(F)(F)F)ccn2)c(-c2ccccc2)s1	8.2
Cc1nc(C(=O)N2CCC3(CC3)C[C@H]2CNc2ccc(Cl)cn2)c(-c2ccccc2)s1	7.9
Cc1ccc(-n2nccn2)c(C(=O)N2CC3(CC3)C[C@H]2CNc2ccc(Cl)cn2)c1	8.1

Shifting focus to the molecule that follows.
[ask] If you can, please state the reported pKb value of `Cc1ccc(-n2nccn2)c(C(=O)N2CCC3(CC3)C[C@H]2CNc2cccc(C)n2)c1` .
[reply] 8.2
